system: gastric acid secretion; experiment: Inhibition of gastric acid secretion in gastric fistula beagle dogs (histamine-stimulated); format: in vivo; settings: Canis lupus familiaris, intraduodenal, 4 h; 3 mg/kg i.d.; histamine-stimulated, four-hour period; read-out: Gastric-Fistula Beagle % Inhibition (3 mg/kg dose)
QUANTITY MEASURED: inhibition in vivo at 3 mg/kg (%)
Return type: number; implicit unit %.

CCNc1cccc(C[S+]([O-])c2nc3ccccc3[nH]2)n1 (stereo not drawn) [Example 109]
58

QUERY: May I ask what inhibition in vivo at 3 mg/kg has been recorded for COc1c(C)cc(N)c(C[S+]([O-])c2nc3ccccc3[nH]2)c1C (stereo not drawn) [Example 39] ?
RESULT: 53

QUERY: May I ask what inhibition in vivo at 3 mg/kg has been recorded for CCc1ccc(N)c(C[S+]([O-])c2nc3ccccc3[nH]2)c1 (stereo not drawn) [Example 37] ?
RESULT: 62

QUERY: May I ask what inhibition in vivo at 3 mg/kg has been recorded for Cc1ccc(C[S+]([O-])c2nc3ccccc3[nH]2)c(N)c1C (stereo not drawn) [Example 53, hydrate] ?
RESULT: 79

----------
QUANTITY MEASURED: melting point

Here is how some compounds turned out for melting point.
CCc1ccc(N)c(C[S+]([O-])c2nc3ccccc3[nH]2)c1 (stereo not shown)
155 to 156 °C
CNc1ccccc1C[S+]([O-])c1nc2ccccc2[nH]1.O (stereo not shown) (hydrate or solvate)
117 to 120 °C
Nc1ccc(Cl)cc1C[S+]([O-])c1nc2ccccc2[nH]1 (stereo not shown)
210 to 211 °C

QUERY: May I ask what melting point has been recorded for CNc1ccccc1CSc1nc2ccccc2[nH]1 ?
RESULT: 109 to 112 °C

----------
target: (H+/K+)-ATPase (Canis lupus familiaris); construct: The microsomes retained at the 15%-30% sucrose interface, after centrifugation at 250,000×g for sixty minutes, were used as the source of (H^+/K^+)-ATPase; from tissue; host or cells: gastric glandular mucosa of mongrel dogs (microsomal fraction, lyophilized); experiment: Inhibition of (H+/K+)-ATPase from canine gastric mucosa (inorganic phosphate release); assay type: biochemical; settings: canine gastric mucosa microsomes, pH 6.0, 30 min preincubation at 37° C.; read-out: (H+/K+)-ATPase IC50
QUANTITY MEASURED: pIC50
Recall that pIC50 is obtained by taking minus log10 of the concentration measured in molar.

Cc1cc(C)c(N)c(C[S+]([O-])c2nc3ccccc3[nH]2)c1 (stereo not shown) [Example 30, hemihydrate]
6.07
COc1ccc2[nH]c([S+]([O-])Cc3ncc(C)c(OC)c3C)nc2c1 (stereo not shown) [omeprazole, reference compound]
5.72
COc1cc(Cl)c(C)c(C[S+]([O-])c2nc3ccccc3[nH]2)c1N (stereo not shown) [Example 59]
5.57

QUERY: May I ask what pIC50 has been recorded for Cc1cc(Cl)cc(C[S+]([O-])c2nc3ccccc3[nH]2)c1N.Cc1cc(Cl)cc(C[S+]([O-])c2nc3ccccc3[nH]2)c1N.O (stereo not shown) [Example 57, hemihydrate] ?
RESULT: 4.22

----------
molecular target: HCMV protease (assemblin) (Human cytomegalovirus, UniProt P16753); experiment: Enzymatic assay for HCMV protease (assemblin) inhibitors, fluorogenic substrate DE2; type: biochemical; conditions: at 100 μm; 30 min preincubation at 22° C.; read-out: Assemblin Inhibition % Inhibition at 100 μm
Sequence (P16753 1-256): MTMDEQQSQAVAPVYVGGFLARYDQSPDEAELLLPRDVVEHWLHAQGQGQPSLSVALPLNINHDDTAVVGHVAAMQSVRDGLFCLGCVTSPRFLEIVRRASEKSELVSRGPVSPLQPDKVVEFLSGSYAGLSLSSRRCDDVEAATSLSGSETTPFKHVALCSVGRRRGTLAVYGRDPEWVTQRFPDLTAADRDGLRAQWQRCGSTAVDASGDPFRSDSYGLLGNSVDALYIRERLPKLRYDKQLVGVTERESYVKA
QUANTITY MEASURED: inhibition at 100 µM (%)
Return type: number; implicit unit %.

Here is how some compounds turned out for inhibition at 100 µM.
COc1ccc(N)c(C[S+]([O-])c2nc3ccccc3[nH]2)c1 (centres unmarked) [Example 20]
60
Nc1ccccc1C[S+]([O-])c1nc2cc(Cl)ccc2[nH]1 (centres unmarked) [Example 43]
74
COc1ccc2[nH]c([S+]([O-])Cc3ncc(C)c(OC)c3C)nc2c1 (centres unmarked) [omeprazole, reference compound]
0

QUERY: May I ask what inhibition at 100 µM has been recorded for COc1c(C)cc(N)c(C[S+]([O-])c2nc3ccccc3[nH]2)c1C (centres unmarked) [Example 39] ?
RESULT: 46

QUERY: May I ask what inhibition at 100 µM has been recorded for CCOc1ccc2[nH]c([S+]([O-])Cc3ccccc3N)nc2c1 (centres unmarked) [Example 45] ?
RESULT: 51

QUERY: May I ask what inhibition at 100 µM has been recorded for COc1cc(Cl)c(C)c(C[S+]([O-])c2nc3ccccc3[nH]2)c1N (centres unmarked) [Example 59] ?
RESULT: 71

QUERY: May I ask what inhibition at 100 µM has been recorded for Cc1cc2nc([S+]([O-])Cc3ccccc3N)[nH]c2cc1C (centres unmarked) [Example 10, hydrate] ?
RESULT: 43

QUERY: May I ask what inhibition at 100 µM has been recorded for COc1ccc2[nH]c([S+]([O-])Cc3ccccc3N)nc2c1 (centres unmarked) [Example 12] ?
RESULT: 26

QUERY: May I ask what inhibition at 100 µM has been recorded for Cc1ccc(C[S+]([O-])c2nc3ccccc3[nH]2)c(N)c1C (centres unmarked) [Example 53, hydrate] ?
RESULT: 85

----------
target: (H+/K+)-ATPase (Canis lupus familiaris, UniProt P50996); construct: The microsomes retained at the 15%-30% sucrose interface, after centrifugation at 250,000×g for sixty minutes, were used as the source of (H^+/K^+)-ATPase; from tissue; host or cells: gastric glandular mucosa of mongrel dogs (microsomal fraction, lyophilized); test: Inhibition of (H+/K+)-ATPase from canine gastric mucosa (inorganic phosphate release); type: biochemical; details: canine gastric mucosa microsomes, pH 6.0, 30 min preincubation at 37° C.; read-out: (H+/K+)-ATPase IC50
Sequence (P50996 whole entry): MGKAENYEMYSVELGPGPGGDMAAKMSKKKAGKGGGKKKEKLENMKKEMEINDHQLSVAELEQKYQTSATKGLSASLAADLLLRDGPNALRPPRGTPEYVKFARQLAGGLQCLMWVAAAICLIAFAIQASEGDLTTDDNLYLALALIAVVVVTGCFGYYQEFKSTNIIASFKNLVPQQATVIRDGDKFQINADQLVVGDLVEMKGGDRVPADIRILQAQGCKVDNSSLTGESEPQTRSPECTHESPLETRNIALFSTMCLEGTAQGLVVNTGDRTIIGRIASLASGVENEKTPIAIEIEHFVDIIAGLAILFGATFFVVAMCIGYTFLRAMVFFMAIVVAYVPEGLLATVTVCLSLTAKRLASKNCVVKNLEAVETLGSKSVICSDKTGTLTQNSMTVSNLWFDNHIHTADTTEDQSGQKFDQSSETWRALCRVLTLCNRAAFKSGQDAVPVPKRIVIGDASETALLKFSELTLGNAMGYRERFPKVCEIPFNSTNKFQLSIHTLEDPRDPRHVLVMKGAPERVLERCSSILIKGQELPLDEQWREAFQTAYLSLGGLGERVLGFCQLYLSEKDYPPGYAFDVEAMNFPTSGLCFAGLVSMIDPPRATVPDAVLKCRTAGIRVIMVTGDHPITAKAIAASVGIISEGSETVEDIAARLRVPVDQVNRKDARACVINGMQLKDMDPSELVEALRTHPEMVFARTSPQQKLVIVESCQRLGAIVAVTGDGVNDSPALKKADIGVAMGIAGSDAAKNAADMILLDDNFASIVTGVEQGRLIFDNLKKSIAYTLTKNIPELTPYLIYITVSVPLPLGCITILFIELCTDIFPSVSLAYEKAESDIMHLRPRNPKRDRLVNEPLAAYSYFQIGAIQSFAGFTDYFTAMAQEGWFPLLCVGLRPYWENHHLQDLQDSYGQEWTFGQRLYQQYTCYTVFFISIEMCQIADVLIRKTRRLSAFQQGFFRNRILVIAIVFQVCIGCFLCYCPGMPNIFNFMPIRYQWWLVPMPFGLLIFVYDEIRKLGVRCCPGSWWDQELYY
Sequence (P33704 whole entry partner): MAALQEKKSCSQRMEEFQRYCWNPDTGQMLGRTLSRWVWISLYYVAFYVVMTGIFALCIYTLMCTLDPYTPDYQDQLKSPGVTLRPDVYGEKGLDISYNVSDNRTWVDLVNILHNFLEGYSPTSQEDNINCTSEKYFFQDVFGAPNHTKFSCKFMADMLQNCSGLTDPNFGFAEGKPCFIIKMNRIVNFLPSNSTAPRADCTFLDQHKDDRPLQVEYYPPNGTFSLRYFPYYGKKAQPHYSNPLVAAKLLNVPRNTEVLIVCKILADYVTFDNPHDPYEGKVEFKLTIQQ
QUANTITY MEASURED: pIC50
Recall that pIC50 is obtained by taking minus log10 of the concentration measured in molar.

Here is how some compounds turned out for pIC50.
Cc1ccc2[nH]c([S+]([O-])Cc3ccc(C)c(C)c3N)nc2c1 (stereo not drawn) [Example 63, hemihydrate]
6.15
Cc1ccc2[nH]c([S+]([O-])Cc3cccc(N)n3)nc2c1 (stereo not drawn)
5.77
Cc1ccc(C)c(C[S+]([O-])c2nc3cc(C(F)(F)F)ccc3[nH]2)c1N (stereo not drawn)
5.82

QUERY: May I ask what pIC50 has been recorded for Cc1cc(C)c2nc([S+]([O-])Cc3cccc(N)n3)[nH]c2c1 (stereo not drawn) ?
RESULT: 5.74

QUERY: May I ask what pIC50 has been recorded for COc1ccc2[nH]c([S+]([O-])Cc3cccc(N)n3)nc2c1 (stereo not drawn) ?
RESULT: 5.35

QUERY: May I ask what pIC50 has been recorded for COC(=O)c1cccc(C[S+]([O-])c2nc3ccccc3[nH]2)c1N (stereo not drawn) [Example 69, hydrate] ?
RESULT: 3.82

QUERY: May I ask what pIC50 has been recorded for COc1cccc(C[S+]([O-])c2nc3ccccc3[nH]2)c1N.COc1cccc(C[S+]([O-])c2nc3ccccc3[nH]2)c1N.O (stereo not drawn) [Example 22, hemihydrate] ?
RESULT: 5.03

QUERY: May I ask what pIC50 has been recorded for COc1ccc(N)c(C[S+]([O-])c2nc3ccccc3[nH]2)c1 (stereo not drawn) ?
RESULT: 5.80

QUERY: May I ask what pIC50 has been recorded for Nc1cccc(C[S+]([O-])c2nc3cc(Cl)ccc3[nH]2)n1 (stereo not drawn) ?
RESULT: 5.16

QUERY: May I ask what pIC50 has been recorded for Nc1cccc(C[S+]([O-])c2nc3cc(CO)ccc3[nH]2)n1 (stereo not drawn) [Example 105, hydrate] ?
RESULT: 5.02

QUERY: May I ask what pIC50 has been recorded for Nc1ccccc1C[S+]([O-])c1nc2ccccc2[nH]1 (stereo not drawn) ?
RESULT: 5.37

QUERY: May I ask what pIC50 has been recorded for CNc1ccccc1C[S+]([O-])c1nc2ccccc2[nH]1 (stereo not drawn) [Example 32, monohydrate] ?
RESULT: 6.19

QUERY: May I ask what pIC50 has been recorded for COc1cc2nc([S+]([O-])Cc3cc(C)ccc3N)[nH]c2cc1OC (stereo not drawn) ?
RESULT: 3.92

QUERY: May I ask what pIC50 has been recorded for COc1ccc2[nH]c([S+]([O-])Cc3c(N)cc(C)c(OC)c3C)nc2c1 (stereo not drawn) ?
RESULT: 5.68

QUERY: May I ask what pIC50 has been recorded for COc1cccc(C[S+]([O-])c2nc3cc(C(F)(F)F)ccc3[nH]2)c1N (stereo not drawn) ?
RESULT: 5.07

QUERY: May I ask what pIC50 has been recorded for CN(C)c1ccccc1C[S+]([O-])c1nc2ccccc2[nH]1 (stereo not drawn) ?
RESULT: 6.15

QUERY: May I ask what pIC50 has been recorded for Cc1cc2nc([S+]([O-])Cc3cccc(N)n3)[nH]c2cc1C (stereo not drawn) ?
RESULT: 6.14
